# Tested on: Wolbachia pipientis
# test: Anti-Wolbachia Cell-Based Screen
# Assay type: functional
# Parameters: scale not given: in the data most compounds retested in dose-response had high values
# test_parameters: 5 µM
Hit rate of the full screen: of about 48,000 compounds, about 13,000 (27%) showed an effect of 50% or more. Some of the results follow.
property_name: Percent Effect (%)

1. CC(CNC(=O)c1cccc(C#N)c1)N1CCc2ccccc21 (centres undefined); -2.298
2. CC(CNC(=O)c1cc(C2CC2)on1)N1CCc2ccccc21 (centres undefined); 110.3
3. CC(CNC(=O)c1ccc(C#N)cc1)N1CCc2ccccc21 (centres undefined); -4.664
4. Cc1nccn1C1CCCN(C(=O)c2cccc(S(C)(=O)=O)c2)C1 (centres undefined); 94.78
5. Cc1ccc(S(=O)(=O)Cc2nsc(N(C)C)n2)c(C)c1; -1.61
6. COCc1ncc(CN2CCN(C)C(=O)C2C)cn1 (centres undefined); 4.151
7. Cc1ccc(NC(=O)NC(C)c2nc[nH]n2)cc1 (centres undefined); -1.45
8. COc1cccc(F)c1C(C)NC(=O)NCCc1ccc(C)nc1 (centres undefined); 1.538
9. COc1cccc(C2C3=C(COC3=O)Nc3[nH]nc(C)c32)c1O (centres undefined); 0.9958
10. Cc1noc(C)c1C(=O)NCC(C)N(C)C (centres undefined); -3.203
11. COc1cccc2c1OCC(C(=O)N1CCN(S(=O)(=O)N(C)C)CC1)C2 (centres undefined); -34.53
12. Cc1noc(C)c1C(=O)NCC1CCCCN1Cc1ccccc1 (centres undefined); 1.84
13. CCC(CNC(=O)c1ccc(=O)[nH]n1)N1CCc2ccccc2C1 (centres undefined); -13.41
14. CC1CCc2nc(NS(=O)(=O)c3cnn(C)c3)sc2C1 (centres undefined); 97.97
15. O=C(NC1CC1)c1cc2c(nc1O)CC(c1cccs1)CC2=O (centres undefined); 2.644
16. CCCSCC(=O)N1C[C@@H]2CC[C@H](C1)N(Cc1ccccn1)C2=O; 6.181
17. NC(=O)COc1cccc(C(=O)N2CCCC(n3cccn3)C2)c1 (centres undefined); -6.954
18. CS(=O)(=O)NCCNc1ncnc2cccc(F)c12; 8.452
19. COCC(=O)N1CCC(C(=O)Nc2ccc(C(C)=O)cc2)CC1; -27.44
20. COc1ccc(NC(=O)NCC(C)N2CCc3ccccc32)cc1 (centres undefined); 6.782
21. Cc1noc(C)c1C(=O)NCC(C)N1CCc2ccccc21 (centres undefined); 136.7
22. CC(C)(C)C(O)CN1CCN(CC(=O)NC(C2CC2)C2CC2)CC1 (centres undefined); 12.33
23. CCn1cc(S(=O)(=O)NC2CCCC2)cn1; 8.847
24. Cn1cc(S(=O)(=O)Nc2ccc3[nH]c(C4CCC4)nc3c2)cn1; -3.023

----------
# Tested on: Wolbachia pipientis
# test: Anti-Wolbachia Cell-Based Screen
# Type: functional
# Set-up: scale not given: in the data most compounds retested in dose-response had high values
# test_parameters: 5 µM
Among all 48,000 compounds or so, about 13,000 (27%) showed an effect of 50% or more. The list shows a part of the results.
Below, each entry is listed alongside its reported Percent Effect.
property_name: Percent Effect (%)

1. CN(C)CCN1CC2(CCC1=O)CCN(C(=O)c1ccn(C)n1)CC2; 6.742
2. CNS(=O)(=O)CC(=O)NC(C)Cc1ccc(-c2ccccc2)cc1 (stereo unspecified); -4.402
3. CN(Cc1ccc(F)cc1)CC1(O)CCN(C(=O)c2ccn(C)n2)C1 (stereo unspecified); 136.3
4. Cc1nc(-c2noc3ccc(C(=O)NCCN(C)C)cc23)co1; -5.984
5. CCOc1ccc(-c2nc(C(=O)NCC3CCOC3)cs2)cc1 (stereo unspecified); 120.1
6. CCn1cc(SCC(=O)N2CCCC(O)(CO)C2)c2ccccc21 (stereo unspecified); -16.21
7. O=C(NCC1CCOC1)c1cc(-c2cccc(Cl)c2)[nH]n1 (stereo unspecified); -2.907
8. Cc1ccc(-c2nc(CC(=O)NCC3CCCOC3)cs2)o1 (stereo unspecified); 16.72
9. CN(Cc1ccc(F)cc1)CC1(O)CCN(C(=O)c2cccs2)C1 (stereo unspecified); 131.3
10. Cc1cc(S(=O)(=O)NCC2CNCCOC2)c(C)cc1Cl (stereo unspecified); -6.904
11. COc1ccc(CN(C)CC2(O)CCN(C(=O)c3cccn3C)C2)cc1 (stereo unspecified); -15.88
